Measured pIC50 accompanies every entry in the list below.
target: CYP2C19 (Homo sapiens, UniProt P33261); assay: CYP450 inhibition assay, S-mephenytoin 4′-hydroxylase in human liver microsomes; assay type: in vitro ADME; details: read-out: IC50, CYP2C19 S-Mephenytoin 4′-hydroxylase; human liver microsomes 0.1 mg/mL; mean of triplicate
Sequence (P33261 whole entry): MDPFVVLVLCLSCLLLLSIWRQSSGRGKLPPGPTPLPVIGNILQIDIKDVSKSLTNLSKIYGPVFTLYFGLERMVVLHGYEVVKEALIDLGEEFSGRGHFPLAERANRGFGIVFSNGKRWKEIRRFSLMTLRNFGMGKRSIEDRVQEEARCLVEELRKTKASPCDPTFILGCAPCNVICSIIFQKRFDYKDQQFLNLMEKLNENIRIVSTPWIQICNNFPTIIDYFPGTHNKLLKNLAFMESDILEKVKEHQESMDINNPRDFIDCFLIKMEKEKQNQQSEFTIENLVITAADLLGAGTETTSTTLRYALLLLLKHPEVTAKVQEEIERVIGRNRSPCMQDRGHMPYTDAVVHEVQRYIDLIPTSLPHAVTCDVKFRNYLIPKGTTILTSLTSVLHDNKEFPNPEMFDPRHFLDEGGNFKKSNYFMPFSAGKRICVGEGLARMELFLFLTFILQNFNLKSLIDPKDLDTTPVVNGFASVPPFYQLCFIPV
Remember, pIC50 is on a log scale: it is -log10 of the molar concentration.

Some solved entries appear below for comparison.
# Compound, Observed Measurement
data = [
    ("CC[C@@H]1CN2CC[C@@]3(O)C(=Nc4cccc(OC)c43)[C@@H]2C[C@@H]1/C(=C\\OC)C(=O)OC [7HMG, 7-hydroxymitragynine]", 4.56),
    ("CC[C@@H]1CN2CCc3c([nH]c4cccc(OC)c34)[C@H]2C[C@@H]1/C(=C\\OC)C(=O)OC", 5.10),
    ("CC[C@H]1CN2CCc3c([nH]c4cccc(OC)c34)[C@@H]2C[C@@H]1/C(=C\\OC)C(=O)OC", 4.71),
]

Now consider a different compound.
The measured pIC50 associated with C=C[C@H]1CN2CCc3c([nH]c4cccc(OC)c34)[C@@H]2C[C@@H]1/C(=C\OC)C(=O)OC reads 4.42

# credit: paper PMC7902086
